system: HOP-62 NSCLC; assay: NCI-60 one-dose screen, 48 h; settings: 10 µM
About 83,000 compounds went through this panel and 20% of them were active in at least one assay; those are over-represented in the sample as a whole. Activity calls are given as the source filed them. Rule for the calls: active = growth percent below 10; inactive = the rest.
Select the correct class. Options are active, inactive and nothing else.

Query :: Dear colleague, could you share the recorded outcome for C#CCOc1c(OC)cc(C(=O)/C(C)=C/c2cccc(N=[N+]=[N-])c2)cc1OC when you have a moment?
Result :: inactive

Query :: Dear colleague, could you share the recorded outcome for COc1ccc2cc(-c3nc4ccccc4s3)c(Cl)nc2c1OC when you have a moment?
Result :: inactive

Query :: Dear colleague, could you share the recorded outcome for O=C(N/N=C/c1ccc(Cl)cc1)c1ccccc1Nc1cccc(C(F)(F)F)c1 when you have a moment?
Result :: inactive

Query :: Dear colleague, could you share the recorded outcome for Clc1ccc(/C=C2\CCCC3C2=Nc2ccccc2NC3c2ccc(Cl)cc2)cc1 (stereo not drawn) when you have a moment?
Result :: inactive

Query :: Dear colleague, could you share the recorded outcome for O=C1/C=C/[C@@H](O)[C@@H]2C[C@@H](O)C[C@H]2/C=C/CCC[C@@H](C(F)(F)F)O1 when you have a moment?
Result :: inactive

Query :: Dear colleague, could you share the recorded outcome for CC[C@H]1OC(=O)[C@H](C)[C@@H](O[C@H]2C[C@@](C)(OC)[C@@H](O)[C@H](C)O2)[C@H](C)[C@@H](O[C@@H]2O[C@H](C)C[C@H](N(C)C)[C@H]2O)[C@](C)(OC)C/C(C)=C2/O[C@@]1(C)C=C2C when you have a moment?
Result :: inactive

Query :: Dear colleague, could you share the recorded outcome for Nc1nc(-c2ccc(Cl)cc2)cc(-c2cc3ccccc3oc2=O)n1 when you have a moment?
Result :: inactive

Query :: Dear colleague, could you share the recorded outcome for O=C(Nc1cccc2c1CCCC2)c1cc2ccccc2cc1O when you have a moment?
Result :: inactive

Query :: Dear colleague, could you share the recorded outcome for COc1cc(-c2nn(-c3cccc(NC(=O)NCCNC(=O)c4ccccc4)c3)cc2-c2ccncc2)ccc1Cl when you have a moment?
Result :: inactive

Query :: Dear colleague, could you share the recorded outcome for CC1OC2CC(=O)OC2C2=C1C(=O)c1c(O)c3c(c(O)c1C2=O)C1CC(O)C3(O)C(C)O1 (stereo not drawn) when you have a moment?
Result :: active

Query :: Dear colleague, could you share the recorded outcome for N#CC1=C(N)Oc2cc(N)ccc2C1c1cccnc1 (stereo not drawn) when you have a moment?
Result :: inactive

Query :: Dear colleague, could you share the recorded outcome for Cc1noc(C)c1CSc1ccccc1C(=O)N1CCN(c2cccc(C(F)(F)F)c2)CC1 when you have a moment?
Result :: inactive

Query :: Dear colleague, could you share the recorded outcome for COc1ccc(C2CC(c3cc(OC)c(OC)c(OC)c3)=NN2)cc1 (stereo not drawn) when you have a moment?
Result :: inactive

Query :: Dear colleague, could you share the recorded outcome for COc1ccc(-c2n[nH]nc2-c2cc(OC)c3c(c2OC)OCO3)cc1 when you have a moment?
Result :: inactive

Query :: Dear colleague, could you share the recorded outcome for COc1cc(-c2csc(NC(=O)Nc3ccc(Cl)c(C(F)(F)F)c3)n2)cc(OC)c1OC when you have a moment?
Result :: active

Query :: Dear colleague, could you share the recorded outcome for CC[C@@H]1NC(=O)[C@H]([C@H](O)[C@H](C)C/C=C/c2ccc(CN3C(=O)CCCC3=O)cc2)N(C)C(=O)[C@H](C(C)C)N(C)C(=O)[C@H](CC(C)C)N(C)C(=O)[C@H](CC(C)C)N(C)C(=O)[C@@H](C)NC(=O)[C@H](C)NC(=O)[C@H](CC(C)C)N(C)C(=O)[C@H](C(C)C)NC(=O)[C@H](CC(C)C)N(C)C(=O)CN(C)C1=O when you have a moment?
Result :: inactive

Query :: Dear colleague, could you share the recorded outcome for Nc1cc(-c2ccc(Cl)cc2)nn1-c1nc2ccccc2nc1Cc1ccccc1 when you have a moment?
Result :: inactive

Query :: Dear colleague, could you share the recorded outcome for CC(C)c1ccc(C(C)C(=O)N(CC2=C(C(C)c3ccccn3)c3ccccc3C2)C(C)C)cc1 (stereo not drawn) when you have a moment?
Result :: inactive

Query :: Dear colleague, could you share the recorded outcome for COc1ccc2c(c1)CC=C1[C@@H]2CC[C@]2(C)C(=O)/C(=N/O)C[C@@H]12 when you have a moment?
Result :: inactive

Query :: Dear colleague, could you share the recorded outcome for Cc1cc(=O)n2nnc3cc(Cl)c(Cl)cc3n12 when you have a moment?
Result :: inactive

Query :: Dear colleague, could you share the recorded outcome for CN(C)CCOc1cccc(NC2=C(Cl)C(=O)C(Nc3cccc(OCCN(C)C)c3)=C(Cl)C2=O)c1 when you have a moment?
Result :: active

Query :: Dear colleague, could you share the recorded outcome for O=C(CCNC(=O)c1nc(-c2ccccc2)n(-c2ccc(Cl)cc2)n1)NO when you have a moment?
Result :: inactive

Query :: Dear colleague, could you share the recorded outcome for CCn1c(SC/C(=N/O)c2ccccc2)nnc1-c1ccccc1 when you have a moment?
Result :: inactive

Query :: Dear colleague, could you share the recorded outcome for CCCCCCCCCCOC(c1ccccc1)c1ccccc1 when you have a moment?
Result :: inactive

Query :: Dear colleague, could you share the recorded outcome for S=c1cnc2ccccc2[nH]1 when you have a moment?
Result :: inactive

Query :: Dear colleague, could you share the recorded outcome for COc1ccc2c(c1)C(=O)/C(=C/c1ccc([N+](=O)[O-])o1)O2 when you have a moment?
Result :: active

Query :: Dear colleague, could you share the recorded outcome for COc1cc(/C=C/c2cc(/C=C/c3ccc(O)c(OC)c3)n(C(=O)Nc3ccc(C)cc3)n2)ccc1O when you have a moment?
Result :: inactive

Query :: Dear colleague, could you share the recorded outcome for Cc1ccc(C(SCC(N)C(=O)O)(c2ccc(C)cc2)c2ccc(C)cc2)cc1 (stereo not drawn) when you have a moment?
Result :: active

Query :: Dear colleague, could you share the recorded outcome for CCOC(=O)/C(=C(\C)N)C1CC(=O)NC1=O (stereo not drawn) when you have a moment?
Result :: inactive

Query :: Dear colleague, could you share the recorded outcome for CN1CCN(CC(=O)Nc2cccc(-n3cc(-c4ccncc4)c(-c4ccc(Cl)c(O)c4)n3)c2)CC1 when you have a moment?
Result :: inactive

Query :: Dear colleague, could you share the recorded outcome for O=C(O)c1cn(C2CC2)c2cc(N3CCN(C(=O)c4cc(-c5ccc(Cl)cc5)nc5ccccc45)CC3)c(F)cc2c1=O when you have a moment?
Result :: inactive

Query :: Dear colleague, could you share the recorded outcome for CC(=O)N[C@H](C(=O)N[C@@H](CCCNC(=N)N)C(=O)N[C@@H](CCCCN)C(=O)N[C@@H](CCCNC(=N)N)C(=O)NC(C(=O)N[C@@H](CC(C)C)C(=O)N[C@@H](CCCNC(=N)N)C(=O)N[C@@]1(C)CCC/C=C\CCC[C@@](C)(C(=O)N[C@@H](CCCNC(=N)N)C(=O)N[C@@H](CCC(=O)O)C(=O)N[C@@H](CC(C)C)C(=O)N[C@H](C(=O)N[C@@H](CCC(=O)O)C(N)=O)C(C)C)NC(=O)[C@H](CCC(N)=O)NC(=O)[C@H](CC(C)C)NC(=O)[C@H](CC(C)C)NC1=O)[C@@H](C)O)C(C)C (stereo partly drawn) when you have a moment?
Result :: active

Query :: Dear colleague, could you share the recorded outcome for C1CN(CC2CCC(CN3CCOCC3)O2)CCO1 (stereo not drawn) when you have a moment?
Result :: inactive

* * *

system: BT-549 breast; experiment: NCI-60 one-dose screen, 48 h (100 = growth as untreated, 0 = no growth, -100 = all killed); conditions: 10 µM
About 83,000 compounds went through this panel and 20% of them were active in at least one assay; those are over-represented in the sample as a whole.
Short version: growth at least 80% is YES, less is NO.

Query :: hey, is growth for this one >= 80%? O=C(N/N=C/c1ccc(Cl)cc1)c1ccc(Cc2n[nH]c(=O)c3cccnc23)cc1
Result :: YES

Query :: hey, is growth for this one >= 80%? OCCn1cccn1
Result :: YES

Query :: hey, is growth for this one >= 80%? Cc1ccc(C(=O)C2C(=O)C3CCC2C3)cc1 (stereo not given)
Result :: YES

Query :: hey, is growth for this one >= 80%? CC(=O)Nc1ccc(S(=O)(=O)N/N=C(\C)c2ccc(C)cc2C)cc1
Result :: YES

Query :: hey, is growth for this one >= 80%? C=CCN(CC=C)C(=O)[C@H](CC)[C@@H]1CC[C@@H](C)[C@@H]([C@H](C)[C@@H](O)[C@@H](C)C(=O)[C@H](CC)C2O[C@]3(C=C[C@@H](O)[C@]4(CC[C@@](C)([C@H]5CC[C@](O)(CC)[C@H](C)O5)O4)O3)[C@H](C)C[C@@H]2C)O1 (stereo not given in full)
Result :: NO

Query :: hey, is growth for this one >= 80%? O=C(CSc1nccc(Nc2cccc3ccccc23)n1)c1ccc(Cl)cc1
Result :: YES

Query :: hey, is growth for this one >= 80%? S=C(SSC(=S)N(c1ccccc1)c1ccccc1)N(c1ccccc1)c1ccccc1
Result :: YES

Query :: hey, is growth for this one >= 80%? NC(=O)c1cccc(-n2ccc3cc(NC(=O)Nc4ccc(Cl)c(C(F)(F)F)c4)ccc32)n1
Result :: NO
